target: CA I (Homo sapiens); experiment: Fluorescent thermal shift assay (TSA), CA I; assay type: binding; conditions: 37° C., pH 7.0, read-out: Dissociation constants Kd to CA I (converted)
Sequence (P00915 whole entry): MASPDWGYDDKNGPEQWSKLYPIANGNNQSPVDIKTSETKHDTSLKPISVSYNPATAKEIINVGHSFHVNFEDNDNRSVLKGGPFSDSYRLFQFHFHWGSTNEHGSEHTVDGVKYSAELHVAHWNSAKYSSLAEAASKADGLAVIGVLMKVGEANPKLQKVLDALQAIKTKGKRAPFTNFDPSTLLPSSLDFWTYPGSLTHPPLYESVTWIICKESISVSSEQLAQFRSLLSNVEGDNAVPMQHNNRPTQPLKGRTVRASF
reported-metric: Kd (nM)

>>> observed("NS(=O)(=O)c1c(F)c(F)cc(F)c1NC1CCCCCCC1 [Compound 8a]")
167
>>> observed("COc1ccc(CNc2c(F)c(S(N)(=O)=O)c(F)c(F)c2S(=O)(=O)CCc2ccccc2)cc1OC [Compound 9i]")
213
>>> observed("NS(=O)(=O)c1c(F)c(F)c(S(=O)(=O)CCc2ccccc2)c(N[C@H](c2ccccc2)[C@@H](O)c2ccccc2)c1F [Compound 9o]")
770
>>> observed("COc1ccc(CNc2c(F)c(S(N)(=O)=O)c(F)c(F)c2S(=O)(=O)CCO)cc1OC [Compound 10e]")
83.3
>>> observed("CNc1c(F)c(S(N)(=O)=O)c(F)c(F)c1S(=O)(=O)CCc1ccccc1 [Compound 9a]")
67
>>> observed("NS(=O)(=O)c1c(F)c(F)c(SCCc2ccccc2)c(F)c1NC1CCCCC1 [Compound 3f]")
25000
>>> observed("NS(=O)(=O)c1c(F)c(F)c(S(=O)(=O)CCc2ccccc2)c(NCCc2ccccc2)c1F [Compound 9d]")
500
>>> observed("CC(Nc1c(F)c(SCCc2ccccc2)c(F)c(F)c1S(N)(=O)=O)c1ccccc1 (stereo not shown) [Compound 3d]")
1700
>>> observed("NS(=O)(=O)c1c(F)c(F)c(SCCO)c(F)c1N[C@H]1CCc2ccccc21 [Compound 4e]")
8300
>>> observed("NS(=O)(=O)c1c(F)c(F)c(SCCc2ccccc2)c(F)c1NC1Cc2ccccc2C1 [Compound 3l]")
5000

---

molecular target: CA VII (Homo sapiens, UniProt P43166); test: Fluorescent thermal shift assay (TSA), CA VII; format: binding; conditions: 37° C., pH 7.0, read-out: Dissociation constants Kd to CA VII (converted)
Sequence (P43166 whole entry): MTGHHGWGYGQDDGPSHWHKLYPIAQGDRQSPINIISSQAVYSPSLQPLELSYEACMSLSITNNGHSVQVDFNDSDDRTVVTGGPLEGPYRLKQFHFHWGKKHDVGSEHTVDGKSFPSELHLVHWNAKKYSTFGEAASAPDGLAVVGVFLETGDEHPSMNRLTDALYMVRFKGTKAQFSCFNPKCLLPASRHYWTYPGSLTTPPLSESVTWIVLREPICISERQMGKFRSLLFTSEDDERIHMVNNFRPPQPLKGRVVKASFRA
// classify(record): look up Kd in ranges band A = under 10 nM, band B = from 10 nM up to 200 nM, band C = 200 nM and over

>>> class_assignment("NS(=O)(=O)c1c(F)c(F)c(SCCO)c(F)c1N[C@H]1CCc2ccccc21")
"band C"
>>> class_assignment("NS(=O)(=O)c1c(F)c(F)c(SCCc2ccccc2)c(F)c1NC1Cc2ccccc2C1")
"band C"
>>> class_assignment("NS(=O)(=O)c1c(F)c(F)c(S(=O)(=O)CCc2ccccc2)c(N[C@H](c2ccccc2)[C@@H](O)c2ccccc2)c1F")
"band B"
>>> class_assignment("NS(=O)(=O)c1c(F)c(F)c(S(=O)(=O)CCc2ccccc2)c(NCc2ccccc2)c1F")
"band A"
>>> class_assignment("COc1cccc(OC)c1CNc1c(F)c(S(N)(=O)=O)c(F)c(F)c1S(=O)(=O)CCc1ccccc1")
"band C"
>>> class_assignment("CC(Nc1c(F)c(SCCc2ccccc2)c(F)c(F)c1S(N)(=O)=O)c1ccccc1 (centres unmarked)")
"band C"
>>> class_assignment("NS(=O)(=O)c1c(F)c(F)c(S(=O)(=O)CCc2ccccc2)c(NCCc2ccccc2)c1F")
"band A"
>>> class_assignment("COc1ccc(CNc2c(F)c(S(N)(=O)=O)c(F)c(F)c2S(=O)(=O)CCO)cc1OC [Compound 10e]")
"band B"
>>> class_assignment("NS(=O)(=O)c1c(F)c(F)c(S(=O)(=O)CCO)c(NCc2ccccc2)c1F [Compound 10a]")
"band B"
>>> class_assignment("CNc1c(F)c(S(N)(=O)=O)c(F)c(F)c1S(=O)(=O)CCc1ccccc1")
"band A"
>>> class_assignment("NS(=O)(=O)c1c(F)c(F)cc(F)c1NC1CCCCCCC1")
"band B"
>>> class_assignment("COc1ccc(CNc2c(F)c(S(N)(=O)=O)c(F)c(F)c2S(=O)(=O)CCc2ccccc2)cc1OC")
"band A"
>>> class_assignment("NS(=O)(=O)c1c(F)c(F)c(SCCc2ccccc2)c(F)c1NC1CCCCC1")
"band B"
>>> class_assignment("COc1cccc(OC)c1CNc1c(F)c(S(N)(=O)=O)c(F)c(F)c1S(=O)(=O)CCO [Compound 10d]")
"band B"
>>> class_assignment("NS(=O)(=O)c1c(F)c(F)c(S(=O)(=O)CCc2ccccc2)c(NC23CC4CC(CC(C4)C2)C3)c1F")
"band A"
>>> class_assignment("CC(C)Nc1c(F)c(SCCc2ccccc2)c(F)c(F)c1S(N)(=O)=O")
"band B"
